Molecular target: human active recombinant p38α-6His tagged (Homo sapiens, UniProt Q16539)
Sequence (Q16539 whole entry): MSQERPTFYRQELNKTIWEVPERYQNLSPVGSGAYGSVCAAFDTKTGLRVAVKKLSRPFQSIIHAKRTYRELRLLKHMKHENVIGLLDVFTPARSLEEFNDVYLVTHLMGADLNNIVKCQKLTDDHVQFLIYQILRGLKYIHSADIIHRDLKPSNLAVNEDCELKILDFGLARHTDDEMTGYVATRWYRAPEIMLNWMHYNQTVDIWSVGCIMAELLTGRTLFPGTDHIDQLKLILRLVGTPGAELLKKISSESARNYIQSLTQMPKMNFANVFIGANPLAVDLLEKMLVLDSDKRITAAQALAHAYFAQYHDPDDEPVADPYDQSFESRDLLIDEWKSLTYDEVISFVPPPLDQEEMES
Test: P38 Alpha Enzyme Assay (AlphaScreen, biotinylated-ATF2 substrate);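 further: 0.5 nM final p38α, reaction started with ATP and run 45 min at 37 °C, phospho-ATF2 read by antibody-based AlphaScreen, background wells quenched with EDTA before ATP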
Assay type: biochemical
Conditions: p38 alpha enzyme inhibition; means of replicate determinations; 4 h pre-incubation at 37° C.; SD of assay 0.2-0.3 log units
quantity: pIC50

chem-smiles	measured-on	pIC50
Cc1ccc(C(=O)NC2CC2)cc1-n1ccnc(NC(C)(C)c2ccccc2OC[C@@H](CO)N(C)C)c1=O	human active recombinant p38α-6His tagged (Homo sapiens, UniProt Q16539)	10.1
Cc1ccc(C(=O)NC2CC2)cc1-n1ccnc(NC2(c3ccccc3OCCNC(C)C)CCC2)c1=O	human active recombinant p38α-6His tagged (Homo sapiens, UniProt Q16539)	9.9
Cc1ccc(C(=O)NC2CC2)cc1-n1ccnc(NC2(c3ccccc3OCCN3CCN(CCO)CC3)CC2)c1=O	human active recombinant p38α-6His tagged (Homo sapiens, UniProt Q16539)	9.1
CCc1ccc(C(=O)NC2CC2)cc1-n1ccnc(NC(C)(C)c2ccccc2OCCNC)c1=O	human active recombinant p38α-6His tagged (Homo sapiens, UniProt Q16539)	8.4
